Provenance of the data: patent US11970493B2

Here, each record is paired with measured pIC50 data.
SYSTEM NAME: hATX/ENPP2 (Homo sapiens, UniProt Q13822)
ASSAY REMARKS: hATX/ENPP2 biochemical assay using 16:0-LPC as substrate (Amplex Red/choline oxidase/HRP fluorescence)
ASSAY CONDITIONS: hENPP2 2.5 nM, LPC (16:0) substrate
pIC50: −log10 of the molar value. Counter-ions that a name gives are not always drawn.

The examples below pair each entry with its known result.
CCc1nc2ccc(-c3cnc(N4CC(NC(=O)[C@@H]5C[C@@H](O)CN5C)C4)nc3)cn2c1N(C)c1nc(-c2ccc(F)cc2)c(C#N)s1 [81 (hydrochloride salt)]
6.70 to 7.70
CCc1nc2ccc(-c3cnc(CC(=O)N4CCC(O)CC4)nc3)cn2c1N(C)c1nc(-c2ccc(F)cc2)c(C#N)s1
6.70 to 7.70
CCc1nc2ccc(-c3ccc(N4CCC(C(=O)N5CCCC5)CC4)nc3)cn2c1N(C)c1nc(-c2ccc(F)cc2)c(C#N)s1
≥ 7.70
CCc1nc2ccc(-c3cnc(N4CCNCC4)nc3)cn2c1N(C)c1nc(-c2ccc(F)cc2)c(C#N)s1
6.70 to 7.70
CCc1nc2ccc(-c3cnc(CC(=O)NC4CNC4)nc3)cn2c1N(C)c1nc(-c2ccc(F)cc2)c(C#N)s1
< 6.70

// moving on: another record for pIC50
Q. State the recorded pIC50 for this entry: `CCc1nc2ccc(-c3cnc(N4CC(NC(=O)C5(C#N)CC5)C4)nc3)cn2c1N(C)c1nc(-c2ccc(F)cc2)c(C#N)s1`
A. 6.70 to 7.70
